Measured IC50, listed per entry.
- Experimental target: active p38 alpha enzyme (Upstate Biotechnology) (Homo sapiens, UniProt Q16539)
- Construct: purchased Upstate Biotechnology
- Sequence (Q16539 whole entry): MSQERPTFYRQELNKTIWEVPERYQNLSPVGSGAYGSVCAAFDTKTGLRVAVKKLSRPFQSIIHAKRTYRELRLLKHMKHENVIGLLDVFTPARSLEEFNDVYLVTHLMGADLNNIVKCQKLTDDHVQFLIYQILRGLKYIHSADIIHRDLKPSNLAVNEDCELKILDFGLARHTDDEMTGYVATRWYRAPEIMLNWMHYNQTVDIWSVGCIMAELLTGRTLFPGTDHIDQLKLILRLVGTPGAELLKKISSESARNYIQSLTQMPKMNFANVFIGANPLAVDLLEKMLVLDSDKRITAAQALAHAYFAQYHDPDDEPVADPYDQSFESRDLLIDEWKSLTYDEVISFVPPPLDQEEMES
- Assay procedure: p38α biochemical assay (ATP turnover, luminescent detection, Cambrex PKlight)
- Reported conditions: p38α biochemical assay, Table 1 Biological Activity
- Experimental: The p38α biochemical assay employed is based on measurement of total ATP turnover following enzyme incubation with substrate in the presence of ATP with the use of a luminescent detection reagent (Cambrex PKlight). […] The final volume was 7.5005 μL as prepared prepared from the addition of 5 ul of kinase reaction (p38 alpah+MapkapK2+ATP) with 0.0005 μL compound dissolved in DMSO, and 2.5 ul of the detection reagent. […] Assay is read using a Perkin Elmer Viewlux.

Below are worked cases with known answers.
CC(=O)NC(Cc1ccc(O)cc1)C(=O)N1CCN(Cc2nc(-c3ccc(F)cc3)c(-c3nc(C(=O)NC(C)C)cs3)o2)CC1 (stereo not drawn) | > 1000 nM
CC(C)NC(=O)c1csc(-c2oc(CN3CCN(C(=O)C(F)(F)F)CC3)nc2-c2ccc(F)cc2)n1 | ≤ 1000 nM

Any idea what its IC50 is? The compound is `Cc1ccc(C(=O)NCc2onc(-c3ccc(F)cc3)c2-c2nc(C(=O)NC(C)C)cs2)c(C)c1`
> 1000 nM

And what about the compound CC(C)NC(=O)c1csc(-c2oc(CNC(=O)C(C)NC(=O)OC(C)(C)C)nc2-c2ccc(F)cc2)n1 (stereo not drawn) [Example 248] ?
> 1000 nM

And what about the compound `CC(C)NC(=O)c1csc(-c2oc(CN3CCOCC3)nc2-c2ccc(F)cc2)n1` ?
≤ 1000 nM

And what about the compound `CC(C)NC(=O)c1csc(-c2c(-c3ccc(F)cc3)noc2CNC(=O)c2ccc(O)cc2O)n1` ?
> 1000 nM

And what about the compound `CC(=O)Oc1ccc(C(=O)N2CCN(Cc3nc(-c4ccc(F)cc4)c(-c4nc(C(=O)NC(C)C)cs4)o3)CC2)cc1` ?
> 1000 nM

* * *

Measured IC50, listed per entry.
- Experimental target: active p38 alpha enzyme (Upstate Biotechnology) (Homo sapiens)
- Construct: purchased Upstate Biotechnology
- Assay procedure: p38α biochemical assay (ATP turnover, luminescent detection, Cambrex PKlight)
- Reported conditions: p38α biochemical assay, Table 1 Biological Activity

Below are worked cases with known answers.
CC(C)NC(=O)c1csc(-c2c(-c3ccc(F)cc3)noc2CNC(=O)c2cccc(Oc3ccccc3)c2)n1 | > 1000 nM
CC(C)NC(=O)c1csc(-c2oc(CNC(=O)c3cc4cc(Cl)ccc4o3)nc2-c2ccc(F)cc2)n1 | ≤ 1000 nM
CC(C)NC(=O)c1csc(-c2oc(CN3CCN(C(=O)c4cc(Br)ccc4Cl)CC3)nc2-c2ccc(F)cc2)n1 | > 1000 nM
COc1cc(C(=O)N2CCN(Cc3nc(-c4ccc(F)cc4)c(-c4nc(C(=O)NC(C)C)cs4)o3)CC2)cc(OC)c1O | ≤ 1000 nM
CC(C)NC(=O)c1csc(-c2oc(CNC(=O)Cc3cccc(O)c3)nc2-c2ccc(F)cc2)n1 | ≤ 1000 nM
CC(C)NC(=O)c1csc(-c2oc(CNC(=O)c3cnc[nH]3)nc2-c2ccc(F)cc2)n1 | ≤ 1000 nM

Notebook: pull reported IC50 for active p38 alpha enzyme (Upstate Biotechnology) (Homo sapiens), entry `COCc1onc(-c2ccc(Cl)cc2)c1-c1ccn(C(=O)NC(C)C)n1`
≤ 1000 nM

* * *

- Experimental target: active p38 alpha enzyme (Upstate Biotechnology) (Homo sapiens)
- Construct: purchased Upstate Biotechnology
- Assay procedure: p38α biochemical assay (ATP turnover, luminescent detection, Cambrex PKlight)
- Reported conditions: p38α kinase; Table 1 Biological Activity
Measurement name: IC50

Below are worked cases with known answers.
COc1cc(CNC(=O)c2csc(-c3c(-c4ccc(F)cc4)n[nH]c3C3CCNCC3)n2)cc(OC)c1 [Example 2138] | > 1 µM
Cc1nc(-c2ccc(F)cc2)c(-c2nc(C(=O)NC3CCC3)cs2)s1 [Example 1714] | ≤ 1 µM
COc1cc(CNCc2nc(-c3ccc(F)cc3)c(-c3nc(C(=O)NC(C)C)cs3)o2)cc(OC)c1 [Example 1161] | > 1 µM
CCCNCc1nc(-c2ccc(F)cc2)c(-c2nc(C(=O)NC(C)C)cs2)o1 [Example 1055] | > 1 µM

Notebook: pull reported IC50 for active p38 alpha enzyme (Upstate Biotechnology) (Homo sapiens), entry CCCOc1ccc(C(=O)N2CCC(c3[nH]nc(-c4ccc(F)cc4)c3-c3nc(C(=O)NC(C)C)cs3)CC2)cc1 [Example 932]
> 1 µM

And what about the compound Cc1nc(-c2ccc(F)cc2)c(-c2nc(C(=O)N(C)C[C@H](O)c3ccc(O)c(O)c3)cs2)s1 [Example 1907] ?
> 1 µM

And what about the compound O=C(NCCc1cccc(Cl)c1)c1csc(-c2c(-c3ccc(F)cc3)n[nH]c2C2CCNCC2)n1 [Example 2128] ?
> 1 µM

And what about the compound Cc1nc(-c2ccc(F)cc2)c(-c2nc(C(=O)NCCc3c[nH]c4ccccc34)cs2)s1 [Example 1809] ?
≤ 1 µM

* * *

- Experimental target: active p38 alpha enzyme (Upstate Biotechnology) (Homo sapiens, UniProt Q16539)
- Construct: purchased Upstate Biotechnology
- Assay procedure: p38α biochemical assay (ATP turnover, luminescent detection, Cambrex PKlight)
- Reported conditions: p38α biochemical assay, Table 1 Biological Activity
Measurement name: IC50

CC(C)NC(=O)c1csc(-c2oc(CNC(=O)c3cn(C)cn3)nc2-c2ccc(F)cc2)n1 | > 1000 nM
COc1cccc(C(=O)NCc2onc(-c3ccc(F)cc3)c2-c2nc(C(=O)NC(C)C)cs2)c1OC | > 1000 nM
CC(=O)Oc1ccccc1C(=O)NCc1onc(-c2ccc(F)cc2)c1-c1nc(C(=O)NC(C)C)cs1 | ≤ 1000 nM

Any idea what its IC50 is? The molecule is `CC(C)NC(=O)c1csc(-c2c(-c3ccc(F)cc3)noc2CNC(=O)c2cc([N+](=O)[O-])ccc2O)n1`
> 1000 nM

* * *

Measured pIC50, listed per entry.
- Experimental target: active p38 alpha enzyme (Upstate Biotechnology) (Homo sapiens)
- Construct: purchased Upstate Biotechnology
- Assay procedure: p38α biochemical assay (ATP turnover, luminescent detection, Cambrex PKlight)
- Reported conditions: p38α kinase; Table 1 Biological Activity
pIC50: −log10 of the molar value.

Below are worked cases with known answers.
CC(C)NC(=O)c1csc(-c2c(-c3ccc(F)cc3)noc2CNc2ccccc2)n1 [Example 1630] | < 6.00
CC(C)NC(=O)c1csc(-c2oc(CN3C(C)CCCC3C)nc2-c2ccc(F)cc2)n1 (stereo not shown) [Example 1208] | < 6.00
Cc1nc(-c2ccc(F)cc2)c(-c2nc(C(=O)NCc3cccnc3)cs2)s1 [Example 1740] | ≥ 6.00

Any idea what its pIC50 is? The compound is CC(C)NC(=O)c1csc(-c2oc(CN3CCCCC3CO)nc2-c2ccc(F)cc2)n1 (stereo not shown) [Example 1214]
< 6.00

* * *

- Experimental target: active p38 alpha enzyme (Upstate Biotechnology) (Homo sapiens)
- Construct: purchased Upstate Biotechnology
- Assay procedure: p38α biochemical assay (ATP turnover, luminescent detection, Cambrex PKlight)
- Reported conditions: p38α biochemical assay, Table 1 Biological Activity
Measurement name: IC50

CC(C)NC(=O)c1csc(-c2oc(CN3CCN(C(=O)c4ccc(F)c([N+](=O)[O-])c4)CC3)nc2-c2ccc(F)cc2)n1 | > 1 µM
Cc1c(C(=O)N2CCN(Cc3nc(-c4ccc(F)cc4)c(-c4nc(C(=O)NC(C)C)cs4)o3)CC2)cccc1[N+](=O)[O-] | > 1 µM
CC(C)NC(=O)c1csc(-c2oc(CN3CCN(C(=O)c4cccnc4)CC3)nc2-c2ccc(F)cc2)n1 | > 1 µM
CC(C)NC(=O)c1csc(-c2c(-c3ccc(F)cc3)noc2CNC(=O)CCc2cccc(C(F)(F)F)c2)n1 | > 1 µM
CC(C)NC(=O)c1csc(-c2c(-c3ccc(F)cc3)noc2C2CCN(C(=O)CO)CC2)n1 | ≤ 1 µM

Any idea what its IC50 is? The compound is CC(C)NC(=O)c1csc(-c2oc(CNC(=O)C(C)O)nc2-c2ccc(F)cc2)n1 (stereo not drawn)
≤ 1 µM

And what about the compound `CC(C)NC(=O)c1csc(-c2oc(CNC(=O)c3ccc(C=O)cc3)nc2-c2ccc(F)cc2)n1` ?
≤ 1 µM

And what about the compound `COc1ccc(C(=O)NCc2onc(-c3ccc(F)cc3)c2-c2nc(C(=O)NC(C)C)cs2)c(O)c1` ?
> 1 µM

And what about the compound `Cc1ccc(C(=O)CCC(=O)N2CCN(Cc3nc(-c4ccc(F)cc4)c(-c4nc(C(=O)NC(C)C)cs4)o3)CC2)cc1` ?
> 1 µM

And what about the compound `CC(C)NC(=O)c1csc(-c2oc(CNC(=O)c3cc(Cl)ccn3)nc2-c2ccc(F)cc2)n1` ?
> 1 µM
